Assay: RP, Phenomenex Kinetex EVO C18, 150 × 3 mm, 2.6 µm, 40 °C, 0.35 mL/min, estimated dead time 1.9 min; A: water + 5 mM ammonium formate, pH 5; B: acetonitrile; gradient (min/%B) 0/5 20/100 25/100 30/5
Conditions: stereoisomer not certain
Each item that follows carries a reported LC retention time.

# compound, LC retention time (min)
data = [
    ("CC12CCC3c4ccc(O)cc4CCC3C1CCC2=O (centres undefined)", 11.7),
    ("CC(=O)N1CCN(c2ccc(OCC3COC(Cn4ccnc4)(c4ccc(Cl)cc4Cl)O3)cc2)CC1 (centres undefined)", 12.2),
    ("OC(Cn1cncn1)(Cn1cncn1)c1ccc(F)cc1F", 5.92),
    ("O=C(CCCN1CCC(O)(c2ccc(Cl)cc2)CC1)c1ccc(F)cc1", 12.3),
    ("C=CCOC(Cn1ccnc1)c1ccc(Cl)cc1Cl (centres undefined)", 12.9),
    ("Nc1ccc(Cl)cc1", 8.88),
    ("Cc1ccc(S(=O)(=O)N(C)N=O)cc1 [N-Methyl-N-nitrosotoluene-4-sulphonamide]", 9.88),
    ("CC(=O)C1CCC2C3CCC4=CC(=O)CCC4(C)C3CCC12C (centres undefined)", 13.3),
    ("Cn1c(=O)c2c(ncn2C)n(C)c1=O", 3.88),
]

* * *

Experiment: RP, Phenomenex Kinetex PS C18, 150 × 3 mm, 2.6 µm, 40 °C, 0.35 mL/min, estimated dead time 1.9 min; A: water + 5 mM ammonium acetate, pH 5; B: methanol; gradient (min/%B) 0/5 20/100 25/100 30/5
Details: stereoisomer not certain

# compound, LC retention time
measured = [
    ("O=[N+]([O-])c1ccc2ccc3cccc4ccc1c2c34 [1-Nitropyrene]", "18.4 min"),
    ("CCCCC1=NC2(CCCC2)C(=O)N1Cc1ccc(-c2ccccc2-c2nn[nH]n2)cc1 [Irbesartan]", "14.6 min"),
    ("C=CCOC(Cn1ccnc1)c1ccc(Cl)cc1Cl (stereo not given) [Imazalil]", "17.1 min"),
    ("c1ccc2c(c1)[nH]c1ccccc12 [Carbazole]", "15.1 min"),
    ("CC(=O)C1CCC2C3CCC4=CC(=O)CCC4(C)C3CCC12C (stereo not given) [Progesterone]", "17.8 min"),
    ("NC(=O)N1c2ccccc2C=Cc2ccccc21 [Carbamazepine]", "13.2 min"),
    ("CSc1nc2ccccc2s1 [2-(Methylthio)benzothiazole]", "15 min"),
    ("CN(C)C(=O)Nc1ccc(Cl)cc1 [Monuron]", "11.9 min"),
    ("CSC1N=C(NC(C)C)NC(NC(C)C)=N1 [Prometryn]", "16.2 min"),
    ("Nc1cnn(-c2ccccc2)c(=O)c1Cl [Chloridazon]", "9.65 min"),
]

* * *

Experiment: RP, Phenomenex Kinetex EVO C18, 150 × 3 mm, 2.6 µm, 40 °C, 0.35 mL/min, estimated dead time 1.9 min; A: water + 0.1% formic acid, pH 3; B: methanol; gradient (min/%B) 0/5 20/100 25/100 30/5
Conditions: stereoisomer not certain
Overview of recorded LC retention time for various compounds

# compound, readout units, LC retention time
rows = [
    ("CC(=O)C1CCC2C3CCC4=CC(=O)CCC4(C)C3CCC12C (centres undefined)", "min", 16.9),
    ("OC(Cn1cncn1)(Cn1cncn1)c1ccc(F)cc1F", "min", 8.85),
    ("Cn1c(=O)c2c(ncn2C)n(C)c1=O", "min", 6.69),
    ("Cc1cc(C)nc(NS(=O)(=O)c2ccc(N)cc2)n1", "min", 6.77),
    ("CC(O)(CS(=O)(=O)c1ccc(F)cc1)C(=O)Nc1ccc(C#N)c(C(F)(F)F)c1 (centres undefined) [Bicalutamide]", "min", 14.4),
    ("COc1ccc(Cl)cc1C(=O)NCCc1ccc(S(=O)(=O)NC(=O)NC2CCCCC2)cc1 [Glibenclamide]", "min", 16.2),
    ("C=CCOC(Cn1ccnc1)c1ccc(Cl)cc1Cl (centres undefined)", "min", 10.4),
    ("COC(=O)C1C2CC3c4[nH]c5cc(OC)ccc5c4CCN3CC2CC(OC(=O)c2cc(OC)c(OC)c(OC)c2)C1OC (centres undefined)", "min", 11.5),
    ("CCN=C1NC(Cl)NC(NC(C)(C)C#N)N1 (centres undefined)", "min", 11.4),
]
